protocol-notes: Cell viability, SRB assays
reported-conditions: African green monkey
recorded-metric: CC50

*Q* Bench note: what CC50 did CCC(CC)COC(=O)[C@H](C)N[P@](=O)(OC[C@H]1O[C@@](C#N)(c2ccc3c(N)ncnn23)[C@H](O)[C@@H]1O)Oc1ccccc1 [remdesivir] show?
*A* > 100 µM

---

Tested on: SARS-CoV-2
protocol-notes: microbe, parasite or virus in culture
Assay type: cell-based
reported-conditions: read-out: EC50 (half-maximal effective doses), antiviral
recorded-metric: EC50 (µM)
Numbers only, in µM.

*Q* Bench note: what EC50 did C[n+]1ccc(-c2c3nc(c(-c4cc[n+](C)cc4)c4ccc([nH]4)c(-c4cc[n+](C)cc4)c4nc(c(-c5cc[n+](C)cc5)c5ccc2[nH]5)C=C4)C=C3)cc1 show?
*A* 8.87
